- Tested on: M21
- Method notes: Antiproliferative activity against human M21 cells after 48 hrs by SRB assay
- Assay type: functional, cell-based
- Test settings: M21, 48 h

- Smiles entry: "CCCC(=O)Nc1ccc(S(=O)(=O)Oc2ccccc2I)cc1"
  IC50 (µM): 9
- Smiles entry: "CC(C)C(=O)Nc1ccc(S(=O)(=O)Oc2ccccc2I)cc1"
  IC50 (µM): 13
- Smiles entry: "CCC(=O)Nc1ccc(S(=O)(=O)Oc2ccccc2I)cc1"
  IC50 (µM): 11
- Smiles entry: "CC(C)C(=O)Nc1ccc(S(=O)(=O)Oc2ccccc2C(C)C)cc1"
  IC50 (µM): 11
- Smiles entry: "CCCCCC(=O)Nc1cccc(S(=O)(=O)Oc2ccccc2C(C)C)c1"
  IC50 (µM): 11
- Smiles entry: "CCCCCC(=O)Nc1ccc(S(=O)(=O)Oc2ccccc2I)cc1"
  IC50 (µM): 11
- Smiles entry: "CC(C)(C)C(=O)Nc1ccc(S(=O)(=O)Oc2ccccc2I)cc1"
  IC50 (µM): 8.3
- Smiles entry: "O=C(Nc1ccc(S(=O)(=O)Oc2ccccc2I)cc1)NC1CC1"
  IC50 (µM): 11
- Smiles entry: "O=C(CCCl)Nc1ccc(S(=O)(=O)Oc2ccccc2I)cc1"
  IC50 (µM): 12
- Smiles entry: "CCC(=O)Nc1ccc(S(=O)(=O)Oc2ccccc2C(C)C)cc1"
  IC50 (µM): 11
- Smiles entry: "CC(C)c1ccccc1OS(=O)(=O)c1cccc(NC(=O)C(C)(C)C)c1"
  IC50 (µM): 13
- Smiles entry: "CC(C)c1ccccc1OS(=O)(=O)c1ccc(NC(=O)NCCCCl)cc1"
  IC50 (µM): 9.3
- Smiles entry: "O=C(NCC1CCCC1)Nc1ccc(S(=O)(=O)Oc2ccccc2I)cc1"
  IC50 (µM): 7.6
- Smiles entry: "O=C(CCCCl)Nc1ccc(S(=O)(=O)Oc2ccccc2I)cc1"
  IC50 (µM): 7.2
